Test system: Velvetleaf
Assay: Pre-emergence herbicide test
Assay type: in vivo
Conditions: Abutilon theophrasti, 11.21 kg/ha, read-out: % plant inhibition (Vele)

SMILES STRING	inhibition at 11210 g/ha (%)
Cn1nc(C(F)(F)F)c(Cl)c1-c1ccc(F)cc1F	80
C#CCOc1cc(-c2nn(C)c(C(F)(F)Cl)c2Cl)c(F)cc1Cl	100
COc1cc(F)c(-c2c(Cl)c(C(F)(F)F)nn2C)cc1[N+](=O)[O-]	0
Cn1nc(C(F)(F)F)c(Cl)c1-c1ccc(Cl)cc1	90
Cn1nc(C(F)(F)F)c(Cl)c1-c1ccc(Cl)cc1F	100

====

Test system: Annual bluegrass
Assay: Post-emergence herbicide test
Assay type: in vivo
Conditions: 1.12 kg/ha, read-out: % plant inhibition (Anbg)
inhibition at 1120 g/ha values by entry

COMPOUND	inhibition at 1120 g/ha
CCOC(=O)C(C)Oc1cc(-c2nn(C)c(C(F)(F)F)c2Cl)c(F)cc1Br (stereo not shown)	70%
CCOC(=O)CSCc1cc(-c2nn(C)c(C(F)(F)F)c2Cl)c(F)cc1Cl	0%
Cn1nc(-c2cc(/C=C/C(=O)O)c(Cl)cc2F)c(Cl)c1C(F)(F)F	30%
CCOC(=O)CON=C(C)c1cc(-c2nn(C)c(C(F)(F)F)c2Cl)c(F)cc1Cl	30%

====

Test system: Cocklebur
Test: Post-emergence herbicide test
Format: in vivo
Conditions: Xanthium strumarium, 11.21 kg/ha, read-out: % plant inhibition (Cobu)

SMILES STRING	RESULT UNITS	inhibition at 11210 g/ha
Cn1nc(-c2cc(CBr)c(Cl)cc2F)c(Cl)c1C(F)(F)F	%	100
COc1cc(-c2c(Cl)c(C(F)(F)F)nn2C)c(F)cc1[N+](=O)[O-]	%	60
Cn1nc(-c2cc(CC(N)=O)c(Cl)cc2F)c(Cl)c1C(F)(F)F	%	60
Cn1nc(C(F)F)c(Cl)c1-c1cc(F)ccc1F	%	0
Cc1cc(-c2c(Cl)c(C(F)(F)F)nn2C)c(F)cc1Cl	%	0
Cn1nc(C(F)(F)F)c(Cl)c1-c1cc([N+](=O)[O-])c(F)cc1F	%	20
Cn1nc(C(F)(F)F)c(Br)c1-c1cc(F)ccc1F	%	0
Cn1nc(-c2ccc([N+](=O)[O-])cc2)c(Cl)c1C(F)(F)F	%	40
Cn1nc(-c2cc(CC(=O)O)c(Cl)cc2F)c(Cl)c1C(F)(F)F	%	100

====

# inhibition at 11210 g/ha annotations
Tested on: Cocklebur
Test: Post-emergence herbicide test
Format: in vivo
Conditions: Xanthium strumarium, 11.21 kg/ha, read-out: % plant inhibition (Cobu)

COMPOUND	RESULT UNITS	inhibition at 11210 g/ha
Cn1nc(-c2ccc(Cl)cc2)c(Cl)c1C(F)(F)Cl [Compound 83]	%	70
Cn1nc(C(F)(F)F)c(Cl)c1-c1ccc(F)cc1F [Compound 75]	%	0
Cn1nc(C(F)(F)F)c(Cl)c1-c1cc(F)c([N+](=O)[O-])cc1F [Compound 70]	%	30
CC(C)OC(=O)COCc1cc(-c2nn(C)c(C(F)(F)F)c2Cl)c(F)cc1Cl [Compound 119]	%	100
C#CCOc1cc(-c2nn(C)c(C(F)(F)Cl)c2Cl)c(F)cc1Cl [Compound 303]	%	100

====

System: Yellow nutsedge
Experiment: Post-emergence herbicide test
Format: in vivo
Details: Cyperus, 11.21 kg/ha, read-out: % plant inhibition (Yens)
QUANTITY MEASURED: inhibition at 11210 g/ha

SMILES STRING	QUANTITY MEASURED	MEASURED
Cc1cc(-c2c(Cl)c(C(F)F)nn2C)c(F)cc1Cl	inhibition at 11210 g/ha	0%
COc1cc(-c2c(Cl)c(C(F)(F)F)nn2C)c(F)cc1[N+](=O)[O-]	inhibition at 11210 g/ha	10%
Cn1nc(C(F)(F)F)c(Cl)c1-c1cc(F)c([N+](=O)[O-])cc1F	inhibition at 11210 g/ha	0%
Cn1nc(-c2cc(CBr)c(Cl)cc2F)c(Cl)c1C(F)(F)F	inhibition at 11210 g/ha	0%
Cn1nc(-c2cc(CC(=O)O)c(Cl)cc2F)c(Cl)c1C(F)(F)F	inhibition at 11210 g/ha	30%
Cn1nc(C(F)(F)F)c(Cl)c1-c1cc(F)c(Cl)cc1Cl	inhibition at 11210 g/ha	0%
Cn1nc(C(F)(F)F)c(Cl)c1-c1ccc([N+](=O)[O-])cc1	inhibition at 11210 g/ha	0%
Cn1nc(-c2cc(S(=O)(=O)Cl)c(Cl)cc2Cl)c(Cl)c1C(F)(F)F	inhibition at 11210 g/ha	0%
Cn1nc(-c2ccc(Cl)cc2)c(Cl)c1C(F)(F)F	inhibition at 11210 g/ha	10%

====

Test system: Downy Brome
Assay: Pre-emergence herbicide test
Format: in vivo
Details: Bromus tectorum, 11.21 kg/ha, read-out: % plant inhibition (Dobr)
Recorded inhibition at 11210 g/ha by entry
QUANTITY MEASURED: inhibition at 11210 g/ha (%)

COMPOUND	QUANTITY MEASURED	RESULT UNITS	MEASURED
Cn1nc(-c2ccc([N+](=O)[O-])cc2)c(Cl)c1C(F)(F)F [Compound 81]	inhibition at 11210 g/ha	%	80
Cn1nc(-c2cc(F)c(Cl)cc2Cl)c(Cl)c1C(F)(F)F [Compound 84]	inhibition at 11210 g/ha	%	100
Cn1nc(-c2cc(CC(=O)O)c(Cl)cc2F)c(Cl)c1C(F)(F)F [Compound 111]	inhibition at 11210 g/ha	%	70
Cn1nc(C(F)F)c(Cl)c1-c1cc(F)ccc1F [Compound 62]	inhibition at 11210 g/ha	%	0
COc1cc(-c2c(Cl)c(C(F)(F)F)nn2C)c(F)cc1[N+](=O)[O-] [Compound 72]	inhibition at 11210 g/ha	%	20
Cn1nc(C(F)(F)F)c(Cl)c1-c1ccc([N+](=O)[O-])cc1 [Compound 65]	inhibition at 11210 g/ha	%	0
Cn1nc(-c2cc([N+](=O)[O-])c(Cl)cc2Cl)c(Cl)c1C(F)(F)F [Compound 86]	inhibition at 11210 g/ha	%	0
Cn1nc(C(F)(F)F)c(Cl)c1-c1cc(F)ccc1F [Compound 69]	inhibition at 11210 g/ha	%	0
CCS(=O)(=O)N(c1cc(-c2nn(C)c(C(F)(F)F)c2Cl)c(Cl)cc1Cl)S(=O)(=O)CC [Compound 90]	inhibition at 11210 g/ha	%	10
Cn1nc(C(F)(F)F)c(Cl)c1-c1cc(F)c([N+](=O)[O-])cc1F [Compound 70]	inhibition at 11210 g/ha	%	20
Cn1nc(-c2cc(Oc3ccc(C(F)(F)F)cc3)c(Cl)cc2F)c(Cl)c1C(F)(F)F [Compound 205]	inhibition at 11210 g/ha	%	0
Cn1nc(C(F)(F)F)c(Cl)c1-c1cc(F)c(Cl)cc1Cl [Compound 80]	inhibition at 11210 g/ha	%	70
Cn1nc(-c2cc(Oc3ccc(C(F)(F)F)cc3Cl)c(Cl)cc2F)c(Cl)c1C(F)(F)F [Compound 203]	inhibition at 11210 g/ha	%	10
Cn1nc(-c2cc(NC(=O)C3(Br)CC3)c(Cl)cc2F)c(Cl)c1C(F)(F)F [Compound 500]	inhibition at 11210 g/ha	%	80
Cn1nc(-c2cc(NC(=O)C(F)(F)F)c(Cl)cc2Cl)c(Cl)c1C(F)(F)F [Compound 88]	inhibition at 11210 g/ha	%	10
Cn1nc(C(F)(F)F)c(Br)c1-c1cc(F)ccc1F [Compound 68]	inhibition at 11210 g/ha	%	0
Cn1nc(C(F)(F)Cl)c(Cl)c1-c1ccc(Cl)cc1 [Compound 67]	inhibition at 11210 g/ha	%	40
COc1cc(F)c(-c2c(Cl)c(C(F)(F)F)nn2C)cc1F [Compound 71]	inhibition at 11210 g/ha	%	10
C#CCOc1cc(-c2nn(C)c(C(F)(F)F)c2Cl)c(F)cc1Cl [Compound 261]	inhibition at 11210 g/ha	%	100
Cn1nc(-c2cc(CC(=O)NCCCl)c(Cl)cc2F)c(Cl)c1C(F)(F)F [Compound 113]	inhibition at 11210 g/ha	%	0
Cn1nc(-c2ccc(Cl)cc2)c(Cl)c1C(F)(F)Cl [Compound 83]	inhibition at 11210 g/ha	%	90
Cn1nc(-c2cc(C(Br)Br)c(Cl)cc2F)c(Cl)c1C(F)(F)F [Compound 132]	inhibition at 11210 g/ha	%	80
Cn1nc(C(F)(F)F)c(Cl)c1-c1cc([N+](=O)[O-])c(F)cc1F [Compound 77]	inhibition at 11210 g/ha	%	10
Cn1nc(C(F)(F)F)c(Cl)c1-c1ccc(Cl)cc1 [Compound 66]	inhibition at 11210 g/ha	%	60
Cn1nc(-c2cc(CC(N)=O)c(Cl)cc2F)c(Cl)c1C(F)(F)F [Compound 112]	inhibition at 11210 g/ha	%	20
COc1cc(-c2c(Cl)c(C(F)(F)F)nn2C)c(F)cc1N [Compound 73]	inhibition at 11210 g/ha	%	0
Cn1nc(-c2cc(N(S(C)(=O)=O)S(C)(=O)=O)c(Cl)cc2Cl)c(Cl)c1C(F)(F)F [Compound 87]	inhibition at 11210 g/ha	%	20
Cn1nc(-c2cc(CBr)c(Cl)cc2F)c(Cl)c1C(F)(F)F [Compound 108]	inhibition at 11210 g/ha	%	100
C#CCOc1cc(-c2nn(C)c(C(F)(F)Cl)c2Cl)c(F)cc1Cl [Compound 303]	inhibition at 11210 g/ha	%	100
Cn1nc(-c2cc(N3CCOCC3)c(Cl)cc2F)c(Cl)c1C(F)(F)F [Compound 99]	inhibition at 11210 g/ha	%	100
CC(C)OC(=O)COCc1cc(-c2nn(C)c(C(F)(F)F)c2Cl)c(F)cc1Cl [Compound 119]	inhibition at 11210 g/ha	%	80
COc1cc(F)c(-c2c(Cl)c(C(F)(F)F)nn2C)cc1[N+](=O)[O-] [Compound 78]	inhibition at 11210 g/ha	%	0
Cn1nc(-c2ccc(Cl)cc2Cl)c(Cl)c1C(F)(F)F [Compound 85]	inhibition at 11210 g/ha	%	100
Cn1nc(C(F)(F)F)c(Cl)c1-c1ccc(Cl)cc1F [Compound 79]	inhibition at 11210 g/ha	%	80
Cc1cc(-c2c(Cl)c(C(F)F)nn2C)c(F)cc1Cl [Compound 64]	inhibition at 11210 g/ha	%	90
CNC(=O)Cc1cc(-c2nn(C)c(C(F)(F)F)c2Cl)c(F)cc1Cl [Compound 114]	inhibition at 11210 g/ha	%	60
